Tested on: PCSK9 gene
Assay protocol: PCSK9 gRNA/SpCas9 editing in primary cynomolgus hepatocytes (Tables 2, 22)
Type: cell-based, cynomolgus monkey
Test conditions: 2500 ng/RNA/mL; SpCas9 mRNA MS002 1:1 by weight
In the oligonucleotide strings, read from the 5' end, every base follows the letter of its sugar. An asterisk marks phosphorothioate; unmarked linkages are phosphodiester. Other units and linkages are bracketed, terminal groups are in braces. A string of capitals states the bases alone. m = 2'-O-methyl; r = 2'-OH (RNA)
Hi there, I'd appreciate the recorded Cyno Primary Hepatocyte Editing % 2500 for every entry that follows.
Numbers only, in %.

INSERT INTO results (molecule, experimental_endpoint, quantity_unit, value_observed) VALUES
  ('GA185: PCSK9 gRNA; protospacer AGACATGCAGGATCTTGGTG (SEQ ID NO: 179) (nucleic acid) guide: mA*mG*mA*rCrArUrGrCrArGrGrArUrCrUrUrGrGrUrGrGrUrUrUrUrArGrArGrCrUrArGrArArArUrArGrCrArArGrUrUrArArArArUrArArGrGrCrUrArGrUrCrCrGrUrUrArUrCrArArCrUrUrGrArArArArArGrUrGrGrCrArCrCrGrArGrUrCrGrGrUrGrCrU*mU*mU*mU', 'Cyno Primary Hepatocyte Editing % 2500', '%', 20.29),
  ('GA209: PCSK9 gRNA; protospacer CTTGGCAGTTGAGCACGCGC (SEQ ID NO: 203) (nucleic acid, sugars from the 5'' end m3 r94 m3, linkages s3 o93 s3 (s phosphorothioate, o phosphodiester), T or U not given here) guide: CUUGGCAGUUGAGCACGCGCGUUUUAGAGCUAGAAAUAGCAAGUUAAAAUAAGGCUAGUCCGUUAUCAACUUGAAAAAGUGGCACCGAGUCGGUGCUUUU', 'Cyno Primary Hepatocyte Editing % 2500', '%', 40.78),
  ('GA210: PCSK9 gRNA; protospacer CTGCGCGTGCTCAACTGCCA (SEQ ID NO: 204) (nucleic acid, sugars from the 5'' end m3 r94 m3, linkages s3 o93 s3 (s phosphorothioate, o phosphodiester), T or U not given here) guide: CUGCGCGUGCUCAACUGCCAGUUUUAGAGCUAGAAAUAGCAAGUUAAAAUAAGGCUAGUCCGUUAUCAACUUGAAAAAGUGGCACCGAGUCGGUGCUUUU', 'Cyno Primary Hepatocyte Editing % 2500', '%', 54.88);

# batch size: 2; output Cyno Primary Hepatocyte Editing % 2500 per entry
1. GA174: PCSK9 gRNA; protospacer GGATCTTGGTGAGGTATCCC (SEQ ID NO: 168) (nucleic acid, sugars from the 5' end m3 r94 m3, linkages s3 o93 s3 (s phosphorothioate, o phosphodiester), T or U not given here) guide: GGAUCUUGGUGAGGUAUCCCGUUUUAGAGCUAGAAAUAGCAAGUUAAAAUAAGGCUAGUCCGUUAUCAACUUGAAAAAGUGGCACCGAGUCGGUGCUUUU
2. GA161: PCSK9 gRNA; protospacer GGACGAGGACGGCGACTACG (SEQ ID NO: 155) (nucleic acid) guide: mG*mG*mA*rCrGrArGrGrArCrGrGrCrGrArCrUrArCrGrGrUrUrUrUrArGrArGrCrUrArGrArArArUrArGrCrArArGrUrUrArArArArUrArArGrGrCrUrArGrUrCrCrGrUrUrArUrCrArArCrUrUrGrArArArArArGrUrGrGrCrArCrCrGrArGrUrCrGrGrUrGrCrU*mU*mU*mU

Reply:
1. 18.65
2. 48.24
